Listed next: entries and their corresponding protein stability index.
B1: TMEM175 (parent)
chain: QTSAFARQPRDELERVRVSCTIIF

Variants of: B1
Experiment: protein stability index of a GFP-peptide fusion (GPS, HEK-293T) (PSI 1-6); higher = more stable;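 further: lentivirally expressed fusions sorted by FACS into six bins by GFP to DsRed ratio, PSI derived from sequencing read proportions per bin multiplied by bin number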
Settings: c terminus: a fixed tail appended
When you answer, write just the number.

Field: example entries. Status: answers known.
>  <Primary Sequence>
QTSAFARQPRDEDERVRVSCTIIF [L13D]

>  <Test Result>
1.3

$$$$
>  <Primary Sequence>
QTSAFARQPRYELERVRVSCTIIF [D11Y]

>  <Test Result>
3.09

$$$$
>  <Primary Sequence>
QTSAFARQPRDELERVRVSCTIIW [F24W]

>  <Test Result>
1.21

$$$$

Any idea what protein stability index was measured for QTSAFARQPRDELEKVRVSCTIIF [R15K] ? 3.37

Any idea what protein stability index was measured for QTSAFARQPRDELERVRSSCTIIF [V18S] ? 2.23

Any idea what protein stability index was measured for QTSAFARQPDDELERVRVSCTIIF [R10D] ? 2.48
